Target: hTLR9 (Homo sapiens, UniProt Q9NR96)
Sequence (Q9NR96 26-1032): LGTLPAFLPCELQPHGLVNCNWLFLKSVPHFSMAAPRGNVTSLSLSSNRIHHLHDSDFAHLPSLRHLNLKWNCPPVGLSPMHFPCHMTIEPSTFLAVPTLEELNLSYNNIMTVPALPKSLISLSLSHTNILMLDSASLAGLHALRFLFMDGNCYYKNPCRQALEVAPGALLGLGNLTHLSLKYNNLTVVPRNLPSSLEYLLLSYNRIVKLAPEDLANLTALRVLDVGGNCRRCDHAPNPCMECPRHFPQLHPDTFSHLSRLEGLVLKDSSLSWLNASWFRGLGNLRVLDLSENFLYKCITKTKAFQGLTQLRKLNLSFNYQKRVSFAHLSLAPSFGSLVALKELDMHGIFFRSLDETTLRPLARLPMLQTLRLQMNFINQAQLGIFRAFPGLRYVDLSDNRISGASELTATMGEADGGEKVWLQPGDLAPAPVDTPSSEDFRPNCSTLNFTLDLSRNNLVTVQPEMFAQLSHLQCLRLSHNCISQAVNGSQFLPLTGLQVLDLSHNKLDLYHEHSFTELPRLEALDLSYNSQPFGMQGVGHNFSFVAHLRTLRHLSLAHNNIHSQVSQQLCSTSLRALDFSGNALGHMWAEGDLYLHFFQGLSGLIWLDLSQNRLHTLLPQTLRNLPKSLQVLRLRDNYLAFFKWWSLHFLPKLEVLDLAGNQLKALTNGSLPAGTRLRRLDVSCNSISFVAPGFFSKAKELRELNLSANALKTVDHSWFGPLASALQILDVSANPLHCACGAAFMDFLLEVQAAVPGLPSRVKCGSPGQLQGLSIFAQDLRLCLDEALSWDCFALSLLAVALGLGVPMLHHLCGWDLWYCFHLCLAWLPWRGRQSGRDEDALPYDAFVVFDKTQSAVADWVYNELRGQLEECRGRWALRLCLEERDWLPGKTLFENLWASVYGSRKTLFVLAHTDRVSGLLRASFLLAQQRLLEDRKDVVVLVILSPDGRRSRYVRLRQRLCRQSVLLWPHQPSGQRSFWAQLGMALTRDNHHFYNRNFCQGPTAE
Experiment: HEK293-Blue-hTLR-9 cells assay (SEAP reporter, ODN2006 stimulation)
Format: cell-based
Conditions: HEK293-Blue-hTLR9 cells, ODN2006, 20 hrs; 0.032 is the lowest tested concentration; read-out: HEK/hTLR9 IC50
Experimental: The following tests were carried out in order to determine the activity of the compounds of formula (I) or (Ia) in HEK293-Blue-hTLR-7/8/9 cells assay. HEK293-Blue-hTLR-9 cells assay: A stable HEK293-Blue-hTLR-9 cell line was purchased from InvivoGen (Cat.#: hkb-htlr9, San Diego, California, USA). These cells were originally designed for studying the stimulation of human TLR9 by monitoring the activation of NF-κB. […]
quantity: IC50 (µM)

Use these answered entries as a reference point.
>  <smiles>
C[C@@H]1CN(c2ccc(C#N)c3ncccc23)C[C@H](CN2Cc3cnc(N4CCNCC4)cc3C2)O1

>  <display unit>
µM

>  <reported value>
0.059

$$$$
>  <smiles>
C[C@@H]1CN(c2ccc(C#N)c3nccnc23)C[C@H](CN2Cc3cc(N4CCNCC4)cnc3C2)O1

>  <display unit>
µM

>  <reported value>
0.136

$$$$
>  <smiles>
C[C@@H]1CN(c2ccc(Cl)c3ncccc23)C[C@H](CN2CCc3cc(N4CCNCC4)ccc3C2)O1

>  <display unit>
µM

>  <reported value>
0.123

$$$$

[I] C[C@@H]1CN(c2ccc(C#N)c3ncccc23)C[C@H](CN2Cc3ccc(CN4CCCCC4)cc3C2)O1
[II] C[C@@H]1CN(c2ccc(C#N)c3ncccc23)C[C@H](CN2Cc3ccc(N4CC(N)C4)cc3C2)O1
-- ask Exercise: compare I and II ; which one has the greater IC50? # respond with the chosen item's label
-- reply II
(II: 0.239 µM, I: 0.073 µM)
